Measured values drawn from ChEMBL document CHEMBL5505969 for this set.

test system: Plasmodium falciparum; experiment: Antiplasmodial activity against sorbitol-synchronized ring stage chloroquine sensitive Plasmodium falciparum 3D7 infected in erythrocytes measured after 48 hrs by SYBR green dye based fluorescence analysis; format: functional, organism-based; conditions: 3D7, Erythrocyte
measurementName: pIC50
Interpret pIC50 as the negative base-10 log of the concentration measured in mol/L.

The cases that follow already have their pIC50 on record.
Simply: Cc1cc(Nc2ccc(S(F)(F)(F)(F)F)cc2)n2nc(C(C)(F)F)nc2n1 , Plasmodium falciparum, pIC50 = 8.40

Simply: Cc1cc(NCCCCNc2ccnc3cc(Cl)ccc23)n2nc(C(F)(F)F)nc2n1 , Plasmodium falciparum, pIC50 = 6.51

Moving on to another compound below.
Simply: Cc1cc(NCCCCCCCNc2ccnc3cc(Cl)ccc23)n2nc(C)nc2n1 , Plasmodium falciparum, pIC50 = 6.92

###

Each item that follows carries a reported selectivity ratio.
assay: Selectivity index, ratio of CC50 for human HepG2 cells to IC50 for antiplasmodial activity against sorbitol-synchronized ring stage chloroquine sensitive Plasmodium falciparum 3D7 infected in erythrocytes; type: toxicity, cell-based; conditions: Plasmodium falciparum 3D7 in erythrocytes, read-out: Ratio CC50/IC50

The cases that follow already have their selectivity ratio on record.
GET /value?item= Cc1cc(NCCCCNc2ccnc3cc(Cl)ccc23)n2nc(C(F)(F)F)nc2n1 &field=selectivity ratio returns > 81

GET /value?item= Cc1cc(NCCCCNc2ccnc3cc(Cl)ccc23)n2nc(C)cc2n1 &field=selectivity ratio returns > 1570

Moving on to another compound below.
GET /value?item= Cc1cc(NCCCCNc2ccnc3cc(Cl)ccc23)n2nc(C)nc2n1 &field=selectivity ratio returns > 100
